All figures here come from patent US20220184240A1.

target: PDE11A (Homo sapiens)
Sequence (Q9HCR9 whole entry, species assumed): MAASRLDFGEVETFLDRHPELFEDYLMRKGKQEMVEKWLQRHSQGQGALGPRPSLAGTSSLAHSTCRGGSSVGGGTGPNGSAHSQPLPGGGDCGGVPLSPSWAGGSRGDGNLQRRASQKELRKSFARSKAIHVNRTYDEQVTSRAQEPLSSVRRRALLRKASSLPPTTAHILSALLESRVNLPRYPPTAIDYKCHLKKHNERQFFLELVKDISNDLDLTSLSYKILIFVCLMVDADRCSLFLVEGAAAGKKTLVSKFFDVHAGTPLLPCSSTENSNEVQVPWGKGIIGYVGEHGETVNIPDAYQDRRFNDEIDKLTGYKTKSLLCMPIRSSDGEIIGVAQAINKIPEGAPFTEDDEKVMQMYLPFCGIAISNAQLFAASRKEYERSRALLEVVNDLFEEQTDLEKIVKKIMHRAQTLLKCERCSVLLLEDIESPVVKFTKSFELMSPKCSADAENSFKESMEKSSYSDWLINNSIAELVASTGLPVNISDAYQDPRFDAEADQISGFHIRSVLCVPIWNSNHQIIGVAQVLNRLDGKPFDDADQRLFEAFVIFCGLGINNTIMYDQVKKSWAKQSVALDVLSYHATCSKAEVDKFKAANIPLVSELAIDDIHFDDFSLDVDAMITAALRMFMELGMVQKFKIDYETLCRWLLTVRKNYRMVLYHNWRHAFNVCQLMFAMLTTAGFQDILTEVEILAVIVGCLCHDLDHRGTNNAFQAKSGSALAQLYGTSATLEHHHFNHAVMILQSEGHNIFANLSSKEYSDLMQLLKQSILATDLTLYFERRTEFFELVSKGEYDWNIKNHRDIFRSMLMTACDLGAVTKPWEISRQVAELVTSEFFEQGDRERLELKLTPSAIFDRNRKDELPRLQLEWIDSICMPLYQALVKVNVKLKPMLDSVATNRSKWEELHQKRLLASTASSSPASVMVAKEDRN
readout-label: Ki

CN1C(=O)c2c(nn(Cc3ccc(C4CCCN4C)cc3)c2Nc2ccc(F)cc2)N2CC(C)(C)N=C12 (stereo not shown)
40.7 µM

====

target: PDE1 (Bovine Brain); construct: Ki; other: PDE1 (Bovine Brain); assay: PDE panel inhibitory constant (Ki) determination
readout-label: Ki

CN1C(=O)c2c(nn(Cc3ccc(C4CCCN4C)cc3)c2Nc2ccc(F)cc2)N2CC(C)(C)N=C12 (stereo not shown) [Compound 1]
1 nM

====

molecular target: PDE4A (Homo sapiens, UniProt P27815)
Sequence (P27815 whole entry, species assumed): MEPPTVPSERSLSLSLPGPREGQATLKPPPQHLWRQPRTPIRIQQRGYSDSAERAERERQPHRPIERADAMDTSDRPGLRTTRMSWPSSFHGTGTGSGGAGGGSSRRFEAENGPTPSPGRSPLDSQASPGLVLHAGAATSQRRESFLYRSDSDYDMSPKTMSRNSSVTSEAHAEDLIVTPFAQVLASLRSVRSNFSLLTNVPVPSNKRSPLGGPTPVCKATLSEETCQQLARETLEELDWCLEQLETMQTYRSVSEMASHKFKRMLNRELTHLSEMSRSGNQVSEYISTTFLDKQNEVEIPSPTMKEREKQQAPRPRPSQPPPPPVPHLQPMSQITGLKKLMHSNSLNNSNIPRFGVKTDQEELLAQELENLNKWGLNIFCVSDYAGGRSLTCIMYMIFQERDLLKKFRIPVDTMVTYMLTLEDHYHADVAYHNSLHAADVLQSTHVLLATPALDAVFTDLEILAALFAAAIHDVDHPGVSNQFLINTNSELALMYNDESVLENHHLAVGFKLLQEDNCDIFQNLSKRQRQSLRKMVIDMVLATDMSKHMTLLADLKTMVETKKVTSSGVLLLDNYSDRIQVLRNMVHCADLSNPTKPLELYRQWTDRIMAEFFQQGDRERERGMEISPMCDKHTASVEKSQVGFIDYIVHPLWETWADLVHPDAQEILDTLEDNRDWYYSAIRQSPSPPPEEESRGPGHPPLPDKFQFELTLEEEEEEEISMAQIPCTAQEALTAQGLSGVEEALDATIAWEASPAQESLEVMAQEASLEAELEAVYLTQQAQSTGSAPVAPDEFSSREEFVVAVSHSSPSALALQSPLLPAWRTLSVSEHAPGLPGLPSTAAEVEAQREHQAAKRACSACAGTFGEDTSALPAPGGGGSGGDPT
readout-label: Ki (µM)

CN1C(=O)c2c(nn(Cc3ccc(C4CCCN4C)cc3)c2Nc2ccc(F)cc2)N2CC(C)(C)N=C12 (stereo not shown) [Compound 1]
6.6

====

target: PDE1A (Homo sapiens, UniProt P54750)
Sequence (P54750 whole entry, species assumed): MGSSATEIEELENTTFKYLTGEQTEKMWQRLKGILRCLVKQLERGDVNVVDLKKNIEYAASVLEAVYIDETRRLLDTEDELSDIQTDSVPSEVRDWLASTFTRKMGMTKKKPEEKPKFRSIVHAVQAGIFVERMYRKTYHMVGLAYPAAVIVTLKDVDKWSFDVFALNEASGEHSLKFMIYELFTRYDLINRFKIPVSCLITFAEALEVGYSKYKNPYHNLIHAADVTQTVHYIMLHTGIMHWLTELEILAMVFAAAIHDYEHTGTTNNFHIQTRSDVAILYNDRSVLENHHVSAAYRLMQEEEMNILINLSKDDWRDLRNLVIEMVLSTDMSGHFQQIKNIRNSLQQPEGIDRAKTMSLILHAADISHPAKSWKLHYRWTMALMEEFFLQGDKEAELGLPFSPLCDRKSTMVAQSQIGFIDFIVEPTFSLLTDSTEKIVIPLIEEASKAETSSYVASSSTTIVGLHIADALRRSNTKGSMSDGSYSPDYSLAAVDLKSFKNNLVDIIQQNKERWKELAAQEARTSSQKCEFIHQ
readout-label: Ki (nM)

CN1C(=O)c2c(nn(Cc3ccc(C4CCCN4C)cc3)c2Nc2ccc(F)cc2)N2CC(C)(C)N=C12 (stereo not shown)
1.5
